target: human TrkA receptor (Homo sapiens (Human)); test: DiscoverX PathHunter TrkA functional assay (NGF-stimulated U2OS cells); conditions: U2OS cells expressing human TrkA-PK, Shc1-EA and p75NTR; compound 1 h, then NGF at ~80% of maximal response for 3 h; luminescence
Sequence (P04629 33-796): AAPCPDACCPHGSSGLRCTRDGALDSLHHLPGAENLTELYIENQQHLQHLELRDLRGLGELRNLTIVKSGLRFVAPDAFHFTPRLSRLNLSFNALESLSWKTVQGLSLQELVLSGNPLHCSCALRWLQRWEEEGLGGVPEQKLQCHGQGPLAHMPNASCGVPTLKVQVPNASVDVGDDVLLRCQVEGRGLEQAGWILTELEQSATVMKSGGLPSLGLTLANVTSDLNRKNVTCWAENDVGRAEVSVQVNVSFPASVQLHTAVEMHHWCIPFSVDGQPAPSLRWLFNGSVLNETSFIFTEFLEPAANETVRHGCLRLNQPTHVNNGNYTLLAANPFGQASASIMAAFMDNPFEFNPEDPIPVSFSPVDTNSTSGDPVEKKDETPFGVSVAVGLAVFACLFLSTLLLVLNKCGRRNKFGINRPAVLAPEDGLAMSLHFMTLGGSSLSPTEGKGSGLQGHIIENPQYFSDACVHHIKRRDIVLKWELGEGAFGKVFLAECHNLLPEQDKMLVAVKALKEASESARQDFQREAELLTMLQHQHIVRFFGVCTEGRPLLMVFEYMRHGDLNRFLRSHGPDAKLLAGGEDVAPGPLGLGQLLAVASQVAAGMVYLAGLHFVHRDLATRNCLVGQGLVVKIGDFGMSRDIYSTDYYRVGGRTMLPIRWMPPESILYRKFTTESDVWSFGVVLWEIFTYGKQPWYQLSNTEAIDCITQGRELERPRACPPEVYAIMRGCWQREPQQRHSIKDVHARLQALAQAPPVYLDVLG
pIC50: −log10 of the molar value.
readout_type: pIC50

Illustrative cases are given below, each with its answer.
>  <chem_smiles>
CNC(=O)Cc1ncc(NC(=O)c2ccc(C(F)(F)F)c(-c3ccn(C)n3)c2)c(-c2ccccc2)n1

>  <readout_type>
pIC50

>  <assay_result>
8.39

$$$$
>  <chem_smiles>
Cn1ccc(-c2cc(C(=O)Nc3cnc(CNC(=O)OC(C)(C)C)nc3-c3ccccc3)ccc2C(F)(F)F)n1

>  <readout_type>
pIC50

>  <assay_result>
8.30

$$$$
>  <chem_smiles>
COCC(=O)NCc1ncc(NC(=O)c2cc(-c3ccn(C)n3)c(C(F)(F)F)cc2F)c(-c2ccccc2)n1

>  <readout_type>
pIC50

>  <assay_result>
9.36

$$$$
>  <chem_smiles>
COCC(=O)NCc1ccc(NC(=O)c2cc(-c3ccn(C)n3)c(C(F)(F)F)cc2F)c(-c2ccccc2)n1

>  <readout_type>
pIC50

>  <assay_result>
9.72

$$$$

I = O=C(Nc1cc(N2CCOCC2)cnc1-c1ccccc1)c1ccc(C(F)(F)F)cc1Cl
II = Cn1ccc(-c2cc(C(=O)Nc3cnc(CC#N)nc3-c3ccccc3)c(F)cc2C(F)(F)F)n1
III = NCc1ncc(NC(=O)c2ccc(C(F)(F)F)c(-c3ccn(C(F)F)n3)c2)c(-c2ccccc2)n1
**Q:** Rank ascending by pIC50. Put the labels in the requested order and list them out.
**A:** I, III, II

I = NC(=O)N1CCN(c2cnc(-c3ccccc3)c(NC(=O)c3cc(-c4ncccn4)c(C(F)(F)F)cc3F)c2)CC1
II = O=C(Nc1cnc(CO)nc1-c1ccccc1)c1ccc(C(F)(F)F)c(-c2ncccn2)c1
III = Cn1ccc(-c2cc(C(=O)Nc3cnc(CNC(=O)CN4CCOC4=O)nc3-c3ccccc3)c(F)cc2C(F)(F)F)n1
**Q:** Order the records so the highest pIC50 appears first and the lowest last. As an answer, provide the labels arranged in the order called for.
**A:** III, I, II

I = Cn1ccc(-c2cc(C(=O)Nc3cnc(CN)nc3-c3ccccc3)ccc2C(F)(F)F)n1
II = Cc1cccc(-c2nc(C)ncc2NC(=O)c2ccc(C(F)(F)F)c(-c3ccn(C)n3)c2)c1
III = Cn1ccc(-c2cc(C(=O)Nc3cnc(NCC(N)=O)nc3-c3ccccc3)c(F)cc2C(F)(F)F)n1
**Q:** Which order do these items take when sorted by rising pIC50? List them. Put the labels in the requested order and list them out.
**A:** I, II, III

A = O=C(Nc1cnc(C(=O)N2CCOCC2)nc1-c1ccccc1)c1ccc(C(F)(F)F)c(-c2cc[nH]n2)c1
B = CN(Cc1ccc(NC(=O)c2cc(-c3ccn(C)n3)c(C(F)(F)F)cc2F)c(-c2ccccc2)n1)C(=O)NCCO
**Q:** # returns the entry with the larger pIC50; inputs A and B Returns: label corresponding to the selected item.
**A:** B
